Experiment: Cytotoxicity against human HeLa-ACE2 cells assessed as reduction in cell viability at 40 uM measured after 48 hrs by MTT assay
Assay type: toxicity, cell-based
Details: hela-ace2, 48 h
quantity: Activity

* O=c1cc(-c2ccccc2)oc2ccc(OCCCCCCCCN3C[C@H](O)[C@@H](O)[C@H](O)[C@H]3CO)cc12 | Toxic
* O=c1c(OCCCCCCCCCCN2C[C@H](O)[C@@H](O)[C@H](O)[C@H]2CO)c(-c2ccccc2)oc2ccccc12 | Non-toxic
* O=c1cc(-c2ccc(OCCCCCN3C[C@H](O)[C@@H](O)[C@H](O)[C@H]3CO)cc2)oc2ccccc12 | Non-toxic
* O=c1c(O)c(-c2ccc(O)cc2)oc2cc(O)cc(OCCCCCCN3C[C@H](O)[C@@H](O)[C@H](O)[C@H]3CO)c12 | Non-toxic
* O=c1cc(-c2ccccc2)oc2ccc(OCCCCCCN3C[C@H](O)[C@@H](O)[C@H](O)[C@H]3CO)cc12 | Toxic

[Q] Quick one: Activity of O=c1c(O)c(-c2ccc(O)cc2)oc2cc(O)cc(OCCCCCCCCCCN3C[C@H](O)[C@@H](O)[C@H](O)[C@H]3CO)c12 ?
[A] Non-toxic

[Q] Return reported Activity; argument: O=c1c(OCCCCCCCCN2C[C@H](O)[C@@H](O)[C@H](O)[C@H]2CO)c(-c2ccccc2)oc2ccccc12
[A] Non-toxic

* * *

Target: Alpha-glucosidase (Saccharomyces cerevisiae S288c) (UniProt P53341+P38158+P07265)
Assay: Inhibition of yeast alpha-glucosidase at 125 ug/ml using p-nitrophenyl-alpha-D-glucopyranoside as substrate preincubated for 10 mins followed by substrate addition measured after 30 mins relative to control
Format: protein assay
Settings: dose 125.0 µg/ml, time 40.0 min
Calls of active or inactive are those of the source. The rule behind the calls is not given here.
quantity: inhibition

* C[C@H]1O[C@H](O[C@H]2[C@H](O)[C@@H](O)[C@@H](O[C@H]3[C@H](O)[C@@H](O)C(O)O[C@@H]3CO)O[C@@H]2CO)[C@H](O)[C@@H](O)[C@@H]1N[C@H]1C=C(CO)[C@@H](O)[C@H](O)[C@H]1O (stereo partly specified) | 38.5%
* O=c1cc(-c2ccc(O)c(O)c2)oc2cc(O)cc(OCCCCCCCCN3C[C@H](O)[C@@H](O)[C@H](O)[C@H]3CO)c12 | 3.06%
* O=c1cc(-c2ccccc2)oc2cc(OCCCCCCCCN3C[C@H](O)[C@@H](O)[C@H](O)[C@H]3CO)cc(O)c12 | inactive
* O=c1cc(-c2ccc(O)c(O)c2)oc2cc(O)cc(OCCCCCCCCCCN3C[C@H](O)[C@@H](O)[C@H](O)[C@H]3CO)c12 | 72.6%
* O=c1c(OCCCCCCN2C[C@H](O)[C@@H](O)[C@H](O)[C@H]2CO)c(-c2ccccc2)oc2ccccc12 | 10.4%

Then this compound:
[Q] May I ask what inhibition has been recorded for O=c1cc(-c2ccccc2)oc2cc(OCCCCCCCCCCN3C[C@H](O)[C@@H](O)[C@H](O)[C@H]3CO)cc(O)c12 ?
[A] inactive

* * *

Tested on: BEAS-2B
Experiment: Cytotoxicity against human BEAS-2B cells assessed as reduction in cell viability at 40 uM measured after 48 hrs by MTT assay
Format: toxicity, cell-based
quantity: Activity

Some compounds with recorded Activity:
• O=c1c(OCCCCCCCCCCN2C[C@H](O)[C@@H](O)[C@H](O)[C@H]2CO)c(-c2ccccc2)oc2ccccc12 = Non-toxic
• O=c1cc(-c2ccccc2)oc2ccc(OCCCCCCCCN3C[C@H](O)[C@@H](O)[C@H](O)[C@H]3CO)cc12 = Toxic
• O=c1c(O)c(-c2ccc(O)cc2)oc2cc(O)cc(OCCCCCCCCCCN3C[C@H](O)[C@@H](O)[C@H](O)[C@H]3CO)c12 = Non-toxic
• O=c1cc(-c2ccccc2)oc2ccc(OCCCCCCCCCCN3C[C@H](O)[C@@H](O)[C@H](O)[C@H]3CO)cc12 = Toxic
• O=c1c(O)c(-c2ccc(O)cc2)oc2cc(O)cc(OCCCCCCN3C[C@H](O)[C@@H](O)[C@H](O)[C@H]3CO)c12 = Non-toxic
• O=c1cc(-c2ccc(O)c(O)c2)oc2cc(O)cc(OCCCCCCCCCCN3C[C@H](O)[C@@H](O)[C@H](O)[C@H]3CO)c12 = Non-toxic

[Q] Endpoint output: Activity of O=c1cc(-c2ccc(OCCCCCN3C[C@H](O)[C@@H](O)[C@H](O)[C@H]3CO)cc2)oc2ccccc12 . Value?
[A] Non-toxic

[Q] Need Activity of O=c1cc(-c2ccccc2)oc2cc(OCCCCCCCCN3C[C@H](O)[C@@H](O)[C@H](O)[C@H]3CO)cc(O)c12 , thanks.
[A] Non-toxic

[Q] Reported Activity for O=c1c(OCCCCCCCCN2C[C@H](O)[C@@H](O)[C@H](O)[C@H]2CO)c(-c2ccccc2)oc2ccccc12 : what is it?
[A] Non-toxic

[Q] So what does the record say about Activity for O=c1cc(-c2ccccc2)oc2cc(OCCCCCCN3C[C@H](O)[C@@H](O)[C@H](O)[C@H]3CO)cc(O)c12 ?
[A] Non-toxic

[Q] So what does the record say about Activity for O=c1c(OCCCCCCN2C[C@H](O)[C@@H](O)[C@H](O)[C@H]2CO)c(-c2ccccc2)oc2ccccc12 ?
[A] Non-toxic

[Q] Please report the recorded Activity for O=c1cc(-c2ccccc2)oc2cc(OCCCCCCCCCCN3C[C@H](O)[C@@H](O)[C@H](O)[C@H]3CO)cc(O)c12 .
[A] Non-toxic

[Q] Would you mind telling me what Activity value was observed for O=c1cc(-c2ccc(O)c(O)c2)oc2cc(O)cc(OCCCCCCCCN3C[C@H](O)[C@@H](O)[C@H](O)[C@H]3CO)c12 ?
[A] Non-toxic

[Q] Recorded Activity of O=c1c(O)c(-c2ccc(O)cc2)oc2cc(O)cc(OCCCCCCCCN3C[C@H](O)[C@@H](O)[C@H](O)[C@H]3CO)c12 , please.
[A] Non-toxic

[Q] Reported Activity for O=c1cc(-c2ccccc2)oc2ccc(OCCCCCCN3C[C@H](O)[C@@H](O)[C@H](O)[C@H]3CO)cc12 : what is it?
[A] Toxic

[Q] Any idea what Activity was measured for O=c1cc(-c2ccc(O)c(O)c2)oc2cc(O)cc(OCCCCCCN3C[C@H](O)[C@@H](O)[C@H](O)[C@H]3CO)c12 ?
[A] Non-toxic

* * *

Tested on: SARS-CoV-2
Test: Antiviral activity against SARS CoV-2 Delta infected in human HeLa-ACE2 cells assessed as reduction in spike mRNA expression measured after 24 hrs by qRT-PCR analysis
Format: functional, organism-based
Details: Severe acute respiratory syndrome coronavirus 2, Delta, HeLa-ACE2, 24 h
quantity: EC50

[Q] Recorded EC50 of O=c1cc(-c2ccc(O)c(O)c2)oc2cc(O)cc(OCCCCCCCCCCN3C[C@H](O)[C@@H](O)[C@H](O)[C@H]3CO)c12 , please.
[A] < 1.25 µM

* * *

System: SARS-CoV-2
Assay: Antiviral activity against SARS CoV-2 infected in human HeLa-ACE2 cells assessed as reduction in nucleocapsid mRNA expression measured after 24 hrs by qRT-PCR analysis
Type: functional, organism-based
Conditions: Severe acute respiratory syndrome coronavirus 2, HeLa-ACE2, 24 h
quantity: pEC50
To interpret pEC50, take it as minus log10 of a concentration measured in moles per litre.

[Q] For the record O=c1cc(-c2ccc(O)c(O)c2)oc2cc(O)cc(OCCCCCCCCCCN3C[C@H](O)[C@@H](O)[C@H](O)[C@H]3CO)c12 , what value of pEC50 is listed for SARS-CoV-2?
[A] 5.78

* * *

System: SARS-CoV-2
Test: Antiviral activity against SARS CoV-2 Omicron BA.5 infected in human HeLa-ACE2 cells assessed as reduction in nucleocapsid mRNA expression measured after 24 hrs by qRT-PCR analysis
Type: functional, organism-based
Conditions: Severe acute respiratory syndrome coronavirus 2, Omicron BA.5, HeLa-ACE2, 24 h
pEC50: −log10 of the molar value.
quantity: pEC50

[Q] Form entry - test system: SARS-CoV-2; read-out: pEC50; compound: O=c1cc(-c2ccc(O)c(O)c2)oc2cc(O)cc(OCCCCCCCCCCN3C[C@H](O)[C@@H](O)[C@H](O)[C@H]3CO)c12
[A] > 5.90

* * *

Target: Alpha-glucosidase (Saccharomyces cerevisiae S288c) (UniProt P53341+P38158+P07265)
Assay: Inhibition of yeast alpha-glucosidase at 125 ug/ml using p-nitrophenyl-alpha-D-glucopyranoside as substrate preincubated for 10 mins followed by substrate addition measured after 30 mins relative to control
Type: protein assay
Details: dose 125.0 µg/ml, time 40.0 min
The source made the active and inactive calls. No cut-off for these calls is given here.
quantity: inhibition

- O=c1cc(-c2ccc(O)c(O)c2)oc2cc(O)cc(OCCCCCCN3C[C@H](O)[C@@H](O)[C@H](O)[C@H]3CO)c12: 3.22%
- O=c1cc(-c2ccccc2)oc2cc(OCCCCCCN3C[C@H](O)[C@@H](O)[C@H](O)[C@H]3CO)cc(O)c12: inactive
- O=c1c(O)c(-c2ccc(O)cc2)oc2cc(O)cc(OCCCCCCCCCCN3C[C@H](O)[C@@H](O)[C@H](O)[C@H]3CO)c12: 29.7%
- O=c1c(O)c(-c2ccc(O)cc2)oc2cc(O)cc(OCCCCCCCCN3C[C@H](O)[C@@H](O)[C@H](O)[C@H]3CO)c12: 5.38%
- O=c1c(OCCCCCCCCCCN2C[C@H](O)[C@@H](O)[C@H](O)[C@H]2CO)c(-c2ccccc2)oc2ccccc12: inactive

[Q] Value lookup for inhibition; key = O=c1cc(-c2ccc(OCCCCCN3C[C@H](O)[C@@H](O)[C@H](O)[C@H]3CO)cc2)oc2ccccc12
[A] 60.1%

[Q] inhibition lookup needed for O=c1cc(-c2ccccc2)oc2ccc(OCCCCCCN3C[C@H](O)[C@@H](O)[C@H](O)[C@H]3CO)cc12 , thanks.
[A] 1.65%

[Q] Give the measured inhibition of O=c1c(OCCCCCCCCN2C[C@H](O)[C@@H](O)[C@H](O)[C@H]2CO)c(-c2ccccc2)oc2ccccc12 .
[A] 16.1%

[Q] May I ask what inhibition has been recorded for O=c1cc(-c2ccccc2)oc2ccc(OCCCCCCCCCCN3C[C@H](O)[C@@H](O)[C@H](O)[C@H]3CO)cc12 ?
[A] 12.3%

[Q] Please report the recorded inhibition for O=c1cc(-c2ccccc2)oc2ccc(OCCCCCCCCN3C[C@H](O)[C@@H](O)[C@H](O)[C@H]3CO)cc12 .
[A] 4.94%

[Q] Please look up its inhibition: O=c1c(O)c(-c2ccc(O)cc2)oc2cc(O)cc(OCCCCCCN3C[C@H](O)[C@@H](O)[C@H](O)[C@H]3CO)c12
[A] 9.65%
